B1: Ribonuclease, P00648 (parent)
chain: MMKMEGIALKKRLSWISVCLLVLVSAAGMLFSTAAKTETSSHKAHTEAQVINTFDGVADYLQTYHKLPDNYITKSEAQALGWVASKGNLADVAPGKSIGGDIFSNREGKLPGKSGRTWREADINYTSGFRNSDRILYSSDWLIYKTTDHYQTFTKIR

variants of: B1; details: Bacillus amyloliquefaciens; pH 6.3; 25 °C; Urea; Fluorescence; MES 50 mM; NaCl 0.15 M; reversible: yes; structure 1BNI; whole UniProt chain shown
Collected unfolding free energy values appear next to each entry.
property-measured: unfolding free energy (kcal/mol)

I51A I98V = 6.16
I51A Y125F = 6.26
I123T = 6.1
I51A I123V = 6.93
